Exercise: state measured % inhibition female (individual replicates) R4 for each of the molecules provided.
test system: P. falciparum female gametocytes; test: P. falciparum Dual Gamete Formation Assay (PfDGFA), female readout (Pfs25-positive female gametes); format: cell-based, Plasmodium falciparum NF54; conditions: PfDGFA at 2µM, 24h preincubation with gametocytes prior to induction of gametogenesis; replicate R4
A number alone suffices; assume %.

Problem: Annotate the molecule COc1ccc(N(C)Cc2cnc3nc(N)nc(N)c3n2)cc1 with its measured % inhibition female (individual replicates) R4.
Solution: 1.8

Problem: Annotate the molecule ON=C1CCc2cc(-c3cc(-c4ccc(OC5CCNCC5)cc4)oc3-c3ccncc3)ccc21 with its measured % inhibition female (individual replicates) R4.
Solution: 18.2

Problem: Annotate the molecule Cc1cc(F)ccc1-c1nc(Nc2ccncc2)c2ccn(C)c2n1 with its measured % inhibition female (individual replicates) R4.
Solution: -9.9

Problem: Annotate the molecule Nc1nc(N)c2cc(CNc3ccc(Cl)c(Cl)c3)ccc2n1 with its measured % inhibition female (individual replicates) R4.
Solution: 0.5

Problem: Annotate the molecule CC1(C)N=C(NC(=O)c2ccc([N+](=O)[O-])cc2)N=C(N)N1OCc1ccc2ccccc2c1 with its measured % inhibition female (individual replicates) R4.
Solution: 0.76

Problem: Annotate the molecule CC1(C)N=C(N)N=C(N)N1c1cccc(Cl)c1.Cl with its measured % inhibition female (individual replicates) R4.
Solution: 5.4

Problem: Annotate the molecule Nc1nc(Cc2ccc(Cl)cc2)nc(Cc2ccc(Cl)cc2)n1 with its measured % inhibition female (individual replicates) R4.
Solution: 8.0

Problem: Annotate the molecule COc1ccc(OC)c(C=CC(=O)NC2CCC(CN3CCC(c4c[nH]c5ccccc45)CC3)CC2)c1 (stereo not drawn) with its measured % inhibition female (individual replicates) R4.
Solution: -6.1

Problem: Annotate the molecule O=C(Nc1ccsc1)Nc1cccc(-c2ccc(-c3nc4cc(C(F)(F)F)ccc4[nH]3)cc2)c1 with its measured % inhibition female (individual replicates) R4.
Solution: -2.5

Problem: Annotate the molecule Cc1ccc2nc(C)cc(N/N=C/c3ccc([N+](=O)[O-])cc3)c2c1 with its measured % inhibition female (individual replicates) R4.
Solution: -9.4

Problem: Annotate the molecule COc1cc2c(c(Cl)c1OC)CCN(C(=O)C(F)(F)F)CC2c1ccccc1 (stereo not drawn) with its measured % inhibition female (individual replicates) R4.
Solution: 10.0

Problem: Annotate the molecule CCCCOc1ccc(N2C(N)=NC(N)=NC2(C)C)cc1.Cl with its measured % inhibition female (individual replicates) R4.
Solution: 21.1

Problem: Annotate the molecule NC(=O)c1ccsc1NC(=O)CNC(c1ccccc1)c1ccc(Cl)cc1 (stereo not drawn) with its measured % inhibition female (individual replicates) R4.
Solution: 6.9

Problem: Annotate the molecule CCOc1cc(Cc2cnc(N)nc2N)cc(OCC)c1O with its measured % inhibition female (individual replicates) R4.
Solution: -15.6

Problem: Annotate the molecule CS(=O)(=O)Cc1cccc(Nc2ncc(Cl)c(Nc3cccnc3C(N)=O)n2)c1.Cl with its measured % inhibition female (individual replicates) R4.
Solution: 3.4

Problem: Annotate the molecule CCc1c(CCNCCCCCCNCCc2ccc(Br)cc2)ccc(OC)c1OC.Cl with its measured % inhibition female (individual replicates) R4.
Solution: -18.3

Problem: Annotate the molecule [O-][S+]1c2ccccc2Sc2ccccc21 with its measured % inhibition female (individual replicates) R4.
Solution: -1.0

Problem: Annotate the molecule CCCCCN1CCCC1CNS(=O)(=O)c1cccc(C(=O)Nc2cccc(C#N)c2)c1.O=C(O)C(F)(F)F (stereo not drawn) with its measured % inhibition female (individual replicates) R4.
Solution: 6.8
